- ASSAY NAME: antimalarial activity against Dd2 strain (AID 2302);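 also: 0% = DMSO untreated growth and 100% = chloroquine plus artemisinin killed control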
- STUDY CONDITIONS: P. falciparum Dd2 in RBCs, LDH growth readout, 72 h; at 2 µM; active compounds read high
QUANTITY: growth inhibition (%)
Record the value in %, omitting the unit from your answer.

Incoming: Entry CNC(=O)C(C)N(c1ccc(Cl)cc1)c1nc(C(C)(C)C)cs1 (centres undefined) : reported growth inhibition = ?
Outgoing: 98

Incoming: Entry Cc1[nH]c(C)c(-c2ccc(OCc3cc(F)cc(F)c3)nc2)c(=O)c1Cl : reported growth inhibition = ?
Outgoing: 97

Incoming: Entry CCN(CCCN1CCCCC1)c1nc(C)cc(Nc2ccc(Cl)cc2)n1 : reported growth inhibition = ?
Outgoing: 92

Incoming: Entry O=C(Nc1ccc2c(c1)OCO2)c1cc(-c2cccnc2)nc2ccc(Cl)cc12 : reported growth inhibition = ?
Outgoing: 41

Incoming: Entry COc1ccc2nc(C)cc(NN=Cc3cccc([N+](=O)[O-])c3)c2c1 : reported growth inhibition = ?
Outgoing: 97

Incoming: Entry CCN(CC)c1ccc(C(c2ccc(N(CC)CC)cc2)c2cccc([N+](=O)[O-])c2)cc1 : reported growth inhibition = ?
Outgoing: 68

Incoming: Entry O=C(Cn1c(SCc2cccc(F)c2F)cc(=O)c2ccccc21)N(CCCn1ccnc1)Cc1ccc(-c2ccc(C(F)(F)F)cc2)cc1 : reported growth inhibition = ?
Outgoing: 99

Incoming: Entry CCN(CC)CCN(Cc1ccc(-c2ccc(C(F)(F)F)cc2)cc1)C(=O)Cn1c(CCc2ccccc2F)nc(=O)c2ccccc21 : reported growth inhibition = ?
Outgoing: 54

Incoming: Entry CCOc1ccc(C2CCN(CCCCNC(=O)c3ccc(NC(=O)c4ccc(Cl)cc4)cc3)CC2)c(Cl)c1 : reported growth inhibition = ?
Outgoing: 96
